Assay: in vitro
Conditions: African green monkey
Listed below: CC50 values for each entry.
Measure name: CC50

                                   compound  measurement
0  C[C@@H]1COCCN1c1cc(N2CCCC[C@@H]2C(F)(F)F)[nH]c(=O)c1 [Compound 1]      > 30 µM
1  C[C@@H]1COCCN1c1cc(N2CCCC[C@@H]2c2ccccc2)[nH]c(=O)c1 [Compound 2]      > 30 µM
2  C[C@@H]1COCCN1c1cc(N2CCOCC23CCC3)[nH]c(=O)c1 [Compound 5]      > 10 µM
3  C[C@@H]1COCCN1c1cc(N2CCC[C@@H]2C(F)(F)F)[nH]c(=O)c1 [Compound 3]      > 30 µM
4  C[C@@H]1COCCN1c1cc(N2CCOC[C@H]2C(F)(F)F)[nH]c(=O)c1 [Compound 4]      > 30 µM
